The reported numbers originate from the supplement of paper PMC8728848.

Catalogue of glycan array binding signal (z-score) values
- measured on: Neu5Ac(a2-3)Gal(b1-4)GlcNAc(b1-2)Man(a1-3)[GlcNAc(b1-2)Man(b1-4)GlcNAc(b1-2)Man(a1-6)]Man(b1-4)GlcNAc(b1-4)GlcNAc
- assay remarks: glycan array binding signal (z-score within array); higher = stronger binding
- measurement setup: glycan notation: IUPAC condensed, linker removed
This excerpt belongs to a sample that is enriched for the strongest signals.
Hey, just send me the number, nothing else.

Use the examples below as a reference point.
Mincle (Homo sapiens), Q9ULY5 (protein) MNSSKSSETQCTERGCFSSQMFLWTVAGIPILFLSACFITRCVVTFRIFQTCDEKKFQLPENFTELSCYNYGSGSVKNCCPLNWEYFQSSCYFFSTDTISWALSLKNCSAMGAHLVVINSQEEQEFLSYKKPKMREFFIGLSDQVVEGQWQWVDGTPLTKSLSFWDVGEPNNIATLEDCATMRDSSNPRQNWNDVTCFLNYFRICEMVGINPLNKGKSL = 3.33
AAL (Agrocybe aegerita), Q6WY08 (protein) MQGVNIYNISAGTSVDLAAPVTTGDIVTFFSSALNLNAGAGNPNNTTLNLFAENGAYLLHIAFRLQENVIIFNSRQPDGPWLVEQRVSDVANQFAGIDGKAMVTVFDHGDKYQVVINEKTVIQYTKQISGLTLSLSYNATEETSIFSTVVEAVTYTGLALEHHHHHH = 5.88
Strep tagII-anxA1 (Homo sapiens), P04083 (protein) MAMVSEFLKQAWFIENEEQEYVQTVKSSKGGPGSAVSPYPTFNPSSDVAALHKAIMVKGVDEATIIDILTKRNNAQRQQIKAAYLQETGKPLDETLKKALTGHLEEVVLALLKTPAQFDADELRAAMKGLGTDEDTLIEILASRTNKEIRDINRVYREELKRDLAKDITSDTSGDFRNALLSLAKGDRSEDFGVNEDLADSDARALYEAGERRKGTDVNVFNTILTTRSYPQLRRVFQKYTKYSKHDMNKVLDLELKGDIEKCLTAIVKCATSKPAFFAEKLHQAMKGVGTRHKALIRIMVSRSEIDMNDIKAFYQKMYGISLCQAILDETKGDYEKILVALCGGN = -0.74
HHL-2 (Homo sapiens), P07307 (protein) MAKDFQDIQQLSSEENDHPFHQGEGPGTRRLNPRRGNPFLKGPPPAQPLAQRLCSMVCFSLLALSFNILLLVVICVTGSQSEGHRGAQLQAELRSLKEAFSNFSSSTLTEVQAISTHGGSVGDKITSLGAKLEKQQQDLKADHDALLFHLKHFPVDLRFVACQMELLHSNGSQRTCCPVNWVEHQGSCYWFSHSGKAWAEAEKYCQLENAHLVVINSWEEQKFIVQHTNPFNTWIGLTDSDGSWKWVDGTDYRHNYKNWAVTQPDNWHGHELGGSEDCVEVQPDGRWNDDFCLQVYRWVCEKRRNATGEVA = 2.39
Gal 7 (Homo sapiens) (protein) MSNVPHKSSLPEGIRPGTVLRIRGLVPPNASRFHVNLLCGEEGGSDAALHFNPRLDTSEVVFNSKEGGSWGREERGPGVPFGRGQPFEVLIIASDDGFKAVVGDAQYHHFRHRLPLARVRLVEVGGDVQLDSVRIF = -0.355

Reported glycan array binding signal (z-score) of SLLPI (Homo sapiens), Q8IXA5 (protein) MVSALRGAPLIRVHSSPVSSPSVSGPRRLVSCLSSQSSALSQSGGGSTSAAGIEARSRALRRRWCPAGIMLLALVCLLSCLLPSSEAKLYGRCELARVLHDFGLDGYRGYSLADWVCLAYFTSGFNAAALDYEADGSTNNGIFQINSRRWCSNLTPNVPNVCRMYCSDLLNPNLKDTVICAMKITQEPQGLGYWEAWRHHCQGKDLTEWVDGCDF : 4.44
